These data points were gathered from patent US20240002497A1.

# system_tested: T1, huNav1.7α+β1-β2-β3 (human, UniProt Q15858 1-1988; Q07699 19-218; O60939 30-215; Q9NY72 23-215)
# T1 construct: 5N11S variant; also called huNav1.7-beta1-beta2-beta3; huNav1.7α+Navβ1-Navβ2-Navβ3
# assay: binding FACS, HEK FlpIn cells
result_type: pEC50
Remember, pEC50 is on a log scale: it is -log10 of the molar concentration.

- binder: "F010300534 (VHH, vs F0103265A11: T57V) VHH: EVQLVESGGGLVQPGGSLRLSCAASGMLFNANTQGWYRQAPGKQRELVAFIFSGGYVNYVDSVKGRFTISRDNAKRTMYLQMNSLKPEDSAIYYCSLSRYLGQGTLVTVSS"
  pEC50: 7.14
- binder: "F010301458 (VHH, vs F0103265A11: A31R, Y56W, V60N, S93A, L103Q) VHH: EVQLVESGGGLVQPGGSLRLSCAASGMLFNRNTQGWYRQAPGKQRELVAFIFSGGWTNYNDSVKGRFTISRDNAKRTMYLQMNSLKPEDSAIYYCALSRYQGQGTLVTVSS"
  pEC50: 8.39
- binder: "F010300536 (VHH, vs F0103265A11: N58T) VHH: EVQLVESGGGLVQPGGSLRLSCAASGMLFNANTQGWYRQAPGKQRELVAFIFSGGYTTYVDSVKGRFTISRDNAKRTMYLQMNSLKPEDSAIYYCSLSRYLGQGTLVTVSS"
  pEC50: 7.57

Record request: pEC50 value, item F010301463 (VHH, vs F0103265A11: A31R, V60N, S93A, L103Q) VHH: EVQLVESGGGLVQPGGSLRLSCAASGMLFNRNTQGWYRQAPGKQRELVAFIFSGGYTNYNDSVKGRFTISRDNAKRTMYLQMNSLKPEDSAIYYCALSRYQGQGTLVTVSS
8.37
